Test system: NCI-H522 lung
Assay: NCI-60 one-dose screen, 48 h (100 = growth as untreated, 0 = no growth, -100 = all killed)
Details: 10 µM unless noted
The panel holds about 83,000 compounds, 20% with a hit somewhere; the sample as a whole holds those more often.
Reported growth values for a set of compounds
Kindly answer with a numeric value in %, unit omitted.

Indicate the recorded growth value for this compound: O=C(NOC[C@H](O)CO)c1ccc(F)c(F)c1Nc1ccc(I)cc1F
44.8

Indicate the recorded growth value for this compound: C#Cc1cccc(Nc2ncnc3cc4c(cc23)OCCOCCOCCO4)c1
0.957

====

Reported growth values for a set of compounds
System: MCF7 breast
Experiment: NCI-60 one-dose screen, 48 h (100 = growth as untreated, 0 = no growth, -100 = all killed)
Details: 10 µM unless noted
About 83,000 compounds went through this panel and 20% of them were active in at least one assay; those are over-represented in the sample as a whole. Calls of active or inactive are those of the source. How the source made its calls: active means growth percent below 10; inactive means the rest.

Study these solved cases before continuing.
CC(=O)C1=C(C)NC(SCc2nnc(-c3ccc(C)cc3)o2)=NC1c1ccc(F)cc1 (configuration not stated) | 95.4% (inactive)
O=C(CNc1nc(-c2ccc(Cl)cc2)cs1)Nc1ccc(-c2nc3ccccc3s2)cc1 | 29.9% (inactive)
C[N+](C)(CCOC(c1ccccc1)c1ccccc1)CC(=O)OCc1ccccc1 | 97% (inactive)
O=C(NC[C@H](O)CO)c1ccncc1Nc1ccc(I)cc1F | 49.1% (inactive)
Cc1ccc(N=C2CSc3nnc(-c4csc5c4CCCC5)n3N2)cc1 | 21.4% (inactive)
Nc1nc(=S)c2ncn(C3OC(COC(=O)c4ccc(Cl)cc4)C(OC(=O)c4ccc(Cl)cc4)C3OC(=O)c3ccc(Cl)cc3)c2[nH]1 (configuration not stated) | 59.8% (inactive)
COc1ccc2c(CCCc3ccc(Cl)cc3Cl)c3[n+](cc2c1OC)CCc1cc2c(cc1-3)OCO2 | 6.01% (active)
COc1ccc2c(c1OC)C(=O)O[C@@H]2[C@H]1c2c(c(C#CC#Cc3ccc(F)c(F)c3)c3c(c2OC)OCO3)CCN1C | 94% (inactive)

Here's the next entry for you.
Provide MCF7 breast growth reading for CNC(=O)c1cc(Oc2ccc(NC(=O)Nc3cc(C(C)(C)C)nn3-c3ccc4ncccc4c3)c(F)c2)ccn1 .
-6.46% (active)

====

System: SNB-75 CNS
Experiment: NCI-60 one-dose screen, 48 h (100 = growth as untreated, 0 = no growth, -100 = all killed)
Settings: 10 µM unless noted
This is part of a sample that, as a whole, favours compounds with a hit. Of some 83,000 tested, about 20% had one in any assay.
With a cut-off of 80%, any growth strictly below it is called 1; any growth meeting it or above is called -1.

Use the examples below as a reference point.
C[C@@H](NC(=O)c1ncnc(N)c1Cl)c1ncc(C(=O)Nc2cc(C(F)(F)F)c(Cl)cn2)s1 | -1
C=CC(=O)Nc1cccc(Oc2nc(Nc3ccc(N4CCN(C)CC4)cc3)nc3ccsc23)c1 | 1
COc1cc2c(Oc3ccc(NC(=O)C4(C(=O)Nc5ccc(F)cc5)CC4)cc3F)ccnc2cc1OCCCN1CCOCC1 | 1
CCN(CC)C(=O)C[N+](C)(C)CCOC(c1ccccc1)c1ccccc1 | 1
O=C(Nc1cn[nH]c1-c1nc2ccc(CN3CCOCC3)cc2[nH]1)NC1CC1 | 1
CC(N)C(Cc1ccc(Cl)cc1)c1ccc(Cl)cc1 (stereo not drawn) | 1
Clc1ccc2c(NCCCNCc3ccc4c(c3)OCO4)ccnc2c1 | -1
Cc1cc(N(CCNc2ccnc3cc(Cl)ccc23)Cc2cccs2)nc(Cl)n1 | 1
CC/C(=C(/c1ccc(Cl)cc1)c1ccc(OCCN2CCCCC2)cc1)c1ccc(Cl)cc1 | -1
COc1cc2nc(Nc3cccc(Cl)c3)nc(N)c2cc1OC | -1

A record lists CCCCCCCC(=O)SCC/C=C/[C@@H]1CC(=O)NCc2cccc(n2)C2=N[C@@](C)(CS2)C(=O)N[C@@H](C(C)C)C(=O)N1 . Is its growth below 80%?
1

A record lists O=C1CCC(=O)CC1 . Is its growth below 80%?
-1

A record lists CCc1cnn2c(NCc3ccc[n+]([O-])c3)cc(N3CCCC[C@H]3CCO)nc12 . Is its growth below 80%?
1

A record lists N#Cc1cc2[nH]c3ccc(OC(F)(F)F)cc3c2oc1=O . Is its growth below 80%?
1

A record lists Cc1cc2c3c(cccc3c1)C(=O)c1ccccc1-2 . Is its growth below 80%?
-1

====

Test system: EKVX NSCLC
Assay: NCI-60 one-dose screen, 48 h (100 = growth as untreated, 0 = no growth, -100 = all killed)
Conditions: 10 µM unless noted
This is part of a sample that, as a whole, favours compounds with a hit. Of some 83,000 tested, about 20% had one in any assay.
reportedMetric: growth (%)
Kindly answer with a numeric value in %, unit omitted.

O=C(O)c1ccc(Nc2ncc3c(n2)-c2ccc(Cl)cc2C(c2c(F)cccc2F)=NC3)cc1 | 80.1
Cc1cn(-c2cc(NC(=O)c3ccc(C)c(Nc4nccc(-c5cnccn5)n4)c3)cc(C(F)(F)F)c2)cn1 | 107
Cc1cc2c(-c3nc4ccccn4c3Nc3cccc4ccccc34)c(O)c(O)cc2c(O)c1-c1c(C)cc2c(-c3nc4ccccn4c3Nc3cccc4ccccc34)c(O)c(O)cc2c1O | 51.4

Indicate the recorded growth value for this compound: CCN1CCN(Cc2ccc(Cc3ncc(F)c(-c4cc(F)c5nc(C)n(C(C)C)c5c4)n3)nc2)CC1
59.6

====

Test system: SN12C renal
Assay: NCI-60 one-dose screen, 48 h (100 = growth as untreated, 0 = no growth, -100 = all killed)
Settings: 10 µM unless noted
Description: Growth inhibition of the SN12C human tumor cell line is measured as a screen for anti-cancer activity. Cells are grown in 96 well plates and exposed to the test compound for 48 hours. Compounds are tested at a single concentration, which is 10^-5 M for most compounds. The reported endpoint is percent growth (GI% or GIPRCNT), where numbers from 0 - 100% represent growth inhibition, and numbers from -100% - 0 represent cell death. For example, a value of 40 represents 60% growth inhibition. […]
Compounds without any hit were thinned out: in the full panel of roughly 83,000, 20% have a hit.
reportedMetric: growth (%)
Kindly answer with a numeric value in %, unit omitted.

Study these solved cases before continuing.
CNC(=O)c1cc(Oc2ccc(NC(=O)Nc3cc(C(C)(C)C)nn3-c3ccc4ncccc4c3)c(F)c2)ccn1 | -10.3
COc1cc(C(=O)NNC(=O)c2ccc(NC(=O)CCl)cc2)cc(OC)c1OC | 65.9
CCCCCCCC(=O)SCC/C=C/[C@@H]1CC(=O)NCc2nc(co2)C2=N[C@@](C)(CS2)C(=O)N[C@@H](C(C)C)C(=O)O1 | 12.6

Here's the next entry for you.
Indicate the recorded growth value for this compound: C[C@]12O[C@H](C[C@]1(O)CO)n1c3ccccc3c3c4c(c5c6ccccc6n2c5c31)CNC4=O
-42

====

Test system: SK-MEL-2 melanoma
Experiment: NCI-60 one-dose screen, 48 h (100 = growth as untreated, 0 = no growth, -100 = all killed)
Details: 10 µM
The panel holds about 83,000 compounds, 20% with a hit somewhere; the sample as a whole holds those more often.
Reported growth values for a set of compounds
Kindly answer with a numeric value in %, unit omitted.

Study these solved cases before continuing.
Nc1c(C(=O)c2ccccc2)sc2nc(-c3cccs3)ccc12 | 44.2
Clc1ccc(/C=C/c2cc(N3CCOCC3)c3cc(Cl)c(Cl)cc3n2)cc1 | 104
Cc1cc2c(-c3nc4ccccn4c3NC34CC5CC(CC(C5)C3)C4)c(O)c(O)cc2c(O)c1-c1c(C)cc2c(-c3nc4ccccn4c3NC34CC5CC(CC(C5)C3)C4)c(O)c(O)cc2c1O | -2.48

Indicate the recorded growth value for this compound: CC1(/C=N/NC(N)=S)NC(=O)NC1=O (centres undefined)
105

Indicate the recorded growth value for this compound: C=CCC(=O)N[C@H](/C=C/C(=O)O)Cc1ccc(-c2cc(Cl)cc(Cl)c2)cc1
101

Indicate the recorded growth value for this compound: C[C@@H](C[C@H](CCO)c1cc(C(F)(F)F)cc(C(F)(F)F)c1)c1ccc2ccccc2c1
82.2

Indicate the recorded growth value for this compound: CCCCCCC1(/C=N/NC(N)=O)NC(=O)NC1=O (centres undefined)
98.8

Indicate the recorded growth value for this compound: COc1ccc2c(CCCC(c3ccccc3)c3ccccc3)c3[n+](cc2c1OC)CCc1cc2c(cc1-3)OCO2
-52.4

Indicate the recorded growth value for this compound: COc1c(C(NC(=O)c2ccccc2)c2sccc2C)cc(Cl)c2cccnc12 (centres undefined)
108

====

Test system: DU-145 prostate
Assay: NCI-60 one-dose screen, 48 h
Details: 10 µM unless noted
Compounds without any hit were thinned out: in the full panel of roughly 83,000, 20% have a hit. Calls of active or inactive are those of the source. Rule for the calls: active = growth percent below 10; inactive = the rest.
Use one of these outcomes when replying: active, inactive

Use the examples below as a reference point.
CN(C)C1CCN(C(=O)c2ccc(NC(=O)Nc3ccc(-c4nc(N5CCOCC5)nc(N5CCOCC5)n4)cc3)cc2)CC1 | active
CCOc1cc2ncc(C#N)c(Nc3ccc(OCc4ccccn4)c(Cl)c3)c2cc1NC(=O)/C=C/CN(C)C | active
COC(=O)N[C@@H](C)CNc1nccc(-c2cn(C(C)C)nc2-c2cc(Cl)cc(NS(C)(=O)=O)c2F)n1 | inactive
COc1cc2c(cc1OCCCCCCN1CCN(c3ncnc4ccccc34)CC1)N=CC1CCCN1C2=O (centres undefined) | active
O=C1C=CC2(NN=C(c3ccccc3)N2c2cccc(Cl)c2)C(Cl)=C1 (centres undefined) | inactive

// param item: CN1[C@@H]2CC[C@H]1/C(=C\c1ccccc1)C1=C2[C@@H](c2ccccc2)C(C#N)=C(N)O1 ; yields the recorded call
inactive

// param item: COc1cc2nccc(Oc3ccc(NC(=O)Nc4cc(C)on4)c(Cl)c3)c2cc1OC ; yields the recorded call
inactive

// param item: CC(C)(C)c1ccc(Cn2cc(CSc3nc4ccccc4s3)nn2)cc1 ; yields the recorded call
inactive

// param item: O=C1CC(c2cccc(F)c2)c2c(n[nH]c2-c2ccc(Cl)cc2)N1 (centres undefined) ; yields the recorded call
inactive

Source of measurements: PubChem BioAssay (NCI)
